Tested on: human Kv4.3/KChIP2.2 potassium channel
Assay: Whole cell patch clamp, CHO-K1 cells stably expressing human Kv4.3/KChIP2.2
Type: cell-based
Conditions: selectivity for Kv4.3 vs hERG (Patch Clamp test); >5 considered very selective
Give Ratio hERG/Kv4.3 for every item shown.
Respond using a number only.

Prompt: Return reported Ratio hERG/Kv4.3. Input molecule: `COc1ccccc1Nc1nc(C)c(C(=O)N[C@@H](C)c2ccc3ccccc3c2)s1`
Completion: 5.0

Prompt: # return recorded Ratio hERG/Kv4.3 for input `COc1cccc([C@@H](C)NC(=O)c2sc(Nc3cc(Cl)ccc3OC)nc2C)c1`
Completion: 5.4

Prompt: Give reported Ratio hERG/Kv4.3 value for `COc1ccccc1Nc1nc(C)c(C(=O)N[C@H]2CCC[C@@H]2OCc2ccccc2)s1`
Completion: 14.7

Prompt: Tell me Ratio hERG/Kv4.3 reported for `Cc1nc(Nc2ccc(Br)cc2)sc1C(=O)N[C@H](C)c1ccc2ccccc2c1`
Completion: 33.1

Prompt: Please list Ratio hERG/Kv4.3 recorded for the molecule `Cc1nc(Nc2ccc(Cl)cc2)sc1C(=O)N[C@@H](C)c1ccc2ccccc2c1`
Completion: 6.6

Prompt: Provide one value: measured Ratio hERG/Kv4.3 of `COc1cc(CNC(=O)c2sc(Nc3ccc(Br)cc3)nc2C)cc(OC)c1`
Completion: 9.1

Prompt: Identify measured Ratio hERG/Kv4.3 corresponding to `Cc1nc(Nc2ccc(Cl)cc2)sc1C(=O)N[C@H](C)c1ccc2ccccc2c1`
Completion: 65.4
